Measured Fit HillSlope of individual entries
Test system: α7 integrin promoter
Protocol: muscle cell-based assay: α7βgal+/− myoblasts/myotubes, LacZ reporter, β-galactosidase cleavage of FDG
Parameters: species or system mouse
Experimental conditions: Table 12; curve fit
Recorded endpoint: Fit HillSlope

{"Item smiles": "C=CCN(CC=C)C(=O)c1ccc(OC2CCN(S(=O)(=O)N(C)C)CC2)cc1", "Recorded endpoint": "Fit HillSlope", "Experimental value": 2.4729}
{"Item smiles": "C/N=c1\\scc(-c2ccc(OC)cc2)n1/N=C(\\C)c1cccnc1", "Recorded endpoint": "Fit HillSlope", "Experimental value": 1.6924}
{"Item smiles": "O=[N+]([O-])c1ccc(N2CCN(c3ccccc3F)CC2)nc1", "Recorded endpoint": "Fit HillSlope", "Experimental value": 1.9282}
{"Item smiles": "Cc1cc(NC(=O)c2ccc(Cl)cc2Cl)no1", "Recorded endpoint": "Fit HillSlope", "Experimental value": 1.3437}
{"Item smiles": "CN(Cc1c(C(=O)N/N=C/c2cccc(F)c2)nnn1-c1nonc1N)c1ccccc1", "Recorded endpoint": "Fit HillSlope", "Experimental value": 3.132}

* * *

System: α7 integrin promoter
Protocol: muscle cell-based assay: α7βgal+/− myoblasts/myotubes, LacZ reporter, β-galactosidase cleavage of FDG
Parameters: species or system mouse
Experimental conditions: Table 12; key not given
The following compounds are shown together with reported Fit Curve Class values.
Recorded endpoint: Fit Curve Class

{"Item smiles": "O=C(Cn1cccc1C(=O)c1ccccc1)NCCCc1ccccc1", "Recorded endpoint": "Fit Curve Class", "Experimental value": 2.1}
{"Item smiles": "O=Cc1ccc(C(=O)OCC(=O)N2CCCC2)cc1", "Recorded endpoint": "Fit Curve Class", "Experimental value": 1.2}
{"Item smiles": "COCCn1c(=N)c(S(=O)(=O)c2ccc(Br)cc2)cc2c(=O)n3ccccc3nc21", "Recorded endpoint": "Fit Curve Class", "Experimental value": 2.2}
{"Item smiles": "NC1=Nc2cccc3cccc1c23", "Recorded endpoint": "Fit Curve Class", "Experimental value": 2.1}
{"Item smiles": "Cc1ccc(NP(=O)(Nc2ccc(C)cc2)Nc2ccc(C)cc2)cc1", "Recorded endpoint": "Fit Curve Class", "Experimental value": 1.1}
{"Item smiles": "C/C(CC(=O)Nc1ccc(Cl)c(C(F)(F)F)c1)=N\\NC(=O)c1cnccn1", "Recorded endpoint": "Fit Curve Class", "Experimental value": 1.2}
{"Item smiles": "COC(=O)Cc1c(O)ccn(Cc2ccc3c(c2)OCO3)c1=O", "Recorded endpoint": "Fit Curve Class", "Experimental value": 2.1}
{"Item smiles": "C[C@H]1CNC(=O)c2c(C(=O)Nc3ccc(CNC(=O)OC(C)(C)C)cc3)ncn21", "Recorded endpoint": "Fit Curve Class", "Experimental value": 2.1}
{"Item smiles": "Cc1cccn2c(=O)c3cc(C(=O)NC4CCCCC4)n(C)c3nc12", "Recorded endpoint": "Fit Curve Class", "Experimental value": 2.1}
{"Item smiles": "Cc1ccc(C2=C(CC(=O)O)C(=O)CC2)cc1", "Recorded endpoint": "Fit Curve Class", "Experimental value": 2.1}

* * *

Test system: α7 integrin promoter
Protocol: muscle cell-based assay: α7βgal+/− myoblasts/myotubes, LacZ reporter, β-galactosidase cleavage of FDG
Set-up: species or system mouse; scale not given here
Experimental conditions: Myoblasts, 10 uM

{"Compound": "Cc1ccsc1CN(C)CC(=O)Cc1ccc([N+](=O)[O-])cc1Cl [drawing 681]", "Assay system": "α7 integrin promoter", "Results in α7+/− β-galactosidase assay": "−0.09863"}
{"Compound": "Cc1cccc2c(/N=N/c3ccc(S(=O)(=O)Nc4ccc(Cl)cc4)cc3[N+](=O)[O-])c(O)[nH]c12 [drawing 605]", "Assay system": "α7 integrin promoter", "Results in α7+/− β-galactosidase assay": "−0.3043"}
{"Compound": "C/C(=N\\NC(=O)c1cc(C)oc1C)c1ccc2ccccc2c1 [drawing 652]", "Assay system": "α7 integrin promoter", "Results in α7+/− β-galactosidase assay": "−0.1575"}
{"Compound": "Cc1ccc2c(c1)/C(=C/c1ccco1)C(=O)N2 [drawing 696]", "Assay system": "α7 integrin promoter", "Results in α7+/− β-galactosidase assay": 0.07554}
{"Compound": "CCNC(=O)C(=O)Nc1cc2c3c(c1)CCN3C(=O)CC2 [drawing 690]", "Assay system": "α7 integrin promoter", "Results in α7+/− β-galactosidase assay": 0.06388}
{"Compound": "O=C(CCc1ccccc1)c1nnc(-c2ccccc2)o1 [drawing 575]", "Assay system": "α7 integrin promoter", "Results in α7+/− β-galactosidase assay": "−0.04687"}
{"Compound": "CCC(C)C(CC)NC(=O)CSc1nnc(COc2ccc(Cl)cc2)o1 (stereo not drawn) [drawing 582]", "Assay system": "α7 integrin promoter", "Results in α7+/− β-galactosidase assay": "−0.1014"}
{"Compound": "NS(=O)(=O)c1ccc(NC(=O)CN2CCc3ccccc32)cc1 [drawing 654]", "Assay system": "α7 integrin promoter", "Results in α7+/− β-galactosidase assay": 0.002758}
{"Compound": "CCC(C)NC(=O)CSc1nnc(COc2ccc(Br)cc2)o1 (stereo not drawn) [drawing 599]", "Assay system": "α7 integrin promoter", "Results in α7+/− β-galactosidase assay": 0.4886}

* * *

Form field: Results in α7+/− β-galactosidase assay (one value per entry).
Test system: α7 integrin promoter
Protocol: muscle cell-based assay: α7βgal+/− myoblasts/myotubes, LacZ reporter, β-galactosidase cleavage of FDG
Parameters: species or system mouse; scale not given here
Experimental conditions: Myoblasts, 10 uM
Recorded endpoint: Results in α7+/− β-galactosidase assay

{"Molecule": "CNC(=O)CSc1nnc(-c2ccc3c(c2)OCO3)n1C [drawing 536]", "Experimental value": 0.03846}
{"Molecule": "COc1ccc(C(=O)Cn2nnc(-c3ccccc3NC(=O)c3ccco3)n2)cc1 [drawing 673]", "Experimental value": "−0.3483"}
{"Molecule": "CCOn1c(=O)c(-c2ccccc2)[n+]([O-])c2ccccc21 [drawing 540]", "Experimental value": "−0.07816"}
{"Molecule": "O=C(NCc1ccccc1)c1csc(-c2cccnc2)n1 [drawing 660]", "Experimental value": 0.1255}
{"Molecule": "N=C(NOC(=O)c1cccc(C(F)(F)F)c1)c1cnccn1 [drawing 577]", "Experimental value": "−0.02595"}
{"Molecule": "CC(=O)Nc1ccc(NC(=O)C/C(C)=N/NC(=O)COc2cc(C)c(Br)cc2Br)cc1 [drawing 657]", "Experimental value": "−0.07468"}

* * *

Test system: α7 integrin promoter
Protocol: muscle cell-based assay: α7βgal+/− myoblasts/myotubes, LacZ reporter, β-galactosidase cleavage of FDG
Parameters: species or system mouse
Experimental conditions: Table 12; curve fit

{"Compound": "CCCS(=O)(=O)N1CCCC(C(=O)c2cccc(Cl)c2)C1 (stereo not drawn) [Compound 84]", "Assay system": "α7 integrin promoter", "Fit HillSlope": 1.2221}
{"Compound": "Cc1cccc(OCc2nc(C#N)c(N3CCCC3)o2)c1 [Compound 2]", "Assay system": "α7 integrin promoter", "Fit HillSlope": 1.4163}
{"Compound": "CC(C)NC(=O)CN1CCN(C(=O)CCl)CC1.Cl [Compound 62]", "Assay system": "α7 integrin promoter", "Fit HillSlope": 1.9673}
{"Compound": "CC1CCCCC12NC(=O)N(CC(=O)OCc1cccc(F)c1)C2=O (stereo not drawn) [Compound 67]", "Assay system": "α7 integrin promoter", "Fit HillSlope": 1.4163}
{"Compound": "CCCCNC(=O)CSc1nnc(Cc2ccc(Cl)c(Cl)c2)c(O)n1 [Compound 34]", "Assay system": "α7 integrin promoter", "Fit HillSlope": 1.8851}
{"Compound": "CC(=O)Nc1ccc(N(C(=O)c2cnccn2)C(C(=O)NC2CCCCC2)c2ccc(F)cc2)cc1 (stereo not drawn) [Compound 44]", "Assay system": "α7 integrin promoter", "Fit HillSlope": 4.095}

* * *

Listed below: Fit Curve Class values for each entry.
System: α7 integrin promoter
Protocol: muscle cell-based assay: α7βgal+/− myoblasts/myotubes, LacZ reporter, β-galactosidase cleavage of FDG
Set-up: species or system mouse
Experimental conditions: Table 12; key not given
Description: An α7 integrin null mouse was produced in which exon 1 of the gene encoding the α7 integrin was replaced by the LacZ reporter. […] A primary myoblast cell line (designated α7βgal^+/−) isolated from 10 day old α7^+/− pups were analyzed for the ability of β-galactosidase to report α7 integrin expression. α7βgal^+/− myoblasts were differentiated and subjected to X-gal staining and western analysis (FIGS. 1A and 1B). […]
Recorded endpoint: Fit Curve Class

{"Compound": "COc1ccc(Nc2ncnc3ccc(C)cc23)cc1", "Experimental value": 2.1}
{"Compound": "Cc1ccc(C2Nc3cccc4cccc(c34)N2)s1", "Experimental value": 1.1}
{"Compound": "CCCCNC(=O)CSc1nnc(Cc2ccc(Cl)c(Cl)c2)c(O)n1", "Experimental value": 1.2}
{"Compound": "COc1ccc(NC(=O)c2cccc(N3C(=O)c4ccc(C(=O)Nc5ccc(OC)c(O)c5)cc4C3=O)c2)cc1O", "Experimental value": 1.1}
{"Compound": "O=C(COC(=O)c1cc2ccccc2oc1=O)Nc1ccc(F)cc1F", "Experimental value": 2.1}
{"Compound": "NC(=O)c1cccnc1Oc1ccc(Cl)cc1Cl", "Experimental value": 2.1}
{"Compound": "CC(C)(CC(=O)O)CC(=O)N1CCCN(c2nccc(C(F)(F)F)n2)CC1", "Experimental value": 2.1}
{"Compound": "CC(C)NC(=O)CN1CCN(C(=O)CCl)CC1.Cl", "Experimental value": 2.1}
{"Compound": "COc1cc(C(C(=O)NC2CCCCC2)N(C(=O)c2snc(C(N)=O)c2N)c2ccc(C)cc2)ccc1O (stereo not shown)", "Experimental value": 2.1}
{"Compound": "CCCCS(=O)(=O)N1CCCC(C(=O)NCCc2ccccc2)C1 (stereo not shown)", "Experimental value": 2.1}
